Overview of recorded Degradation rate of ERα in T-47D cells (%) for various compounds
- target_desc: ERα (Homo sapiens)
- Sequence (P03372 whole entry): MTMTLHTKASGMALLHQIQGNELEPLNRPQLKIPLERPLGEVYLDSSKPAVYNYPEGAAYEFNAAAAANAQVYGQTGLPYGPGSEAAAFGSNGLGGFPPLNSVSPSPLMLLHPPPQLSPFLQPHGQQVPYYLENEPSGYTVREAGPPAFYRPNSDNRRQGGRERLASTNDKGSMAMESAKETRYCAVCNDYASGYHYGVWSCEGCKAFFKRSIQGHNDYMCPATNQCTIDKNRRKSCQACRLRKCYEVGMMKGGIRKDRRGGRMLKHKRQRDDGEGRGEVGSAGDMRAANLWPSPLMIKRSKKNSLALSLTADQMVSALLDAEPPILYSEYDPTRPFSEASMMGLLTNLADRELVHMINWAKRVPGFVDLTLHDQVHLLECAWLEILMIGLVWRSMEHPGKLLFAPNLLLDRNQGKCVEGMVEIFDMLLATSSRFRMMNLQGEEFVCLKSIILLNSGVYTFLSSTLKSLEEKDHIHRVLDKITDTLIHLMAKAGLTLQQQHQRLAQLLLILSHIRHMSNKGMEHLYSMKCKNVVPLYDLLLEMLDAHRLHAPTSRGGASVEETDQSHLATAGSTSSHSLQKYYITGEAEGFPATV
- assay_text: ERα degradation in T-47D cells (Western blot)
- Assay type: cell-based
- measurement_setup: 1nM, 4 hours
Write the answer as a number in %, unit excluded.

Cn1c(=O)n(C2CCC(=O)NC2=O)c2ccc3c(c21)OCC31CCN(C[C@H]2CC[C@@H](OC3CCN(c4ccc([C@@H]5c6ccc(O)cc6CC[C@@H]5c5ccccc5)cc4)CC3)CC2)CC1 (some centres unmarked)	67
O=C1CCC(N2Cc3c(ccc4c3OCC43CCC4(CCN(C5CCC6(CC5)CN(c5ccc([C@@H]7c8ccc(O)cc8CC[C@@H]7c7ccccc7)cc5)C6)CC4)CC3)C2=O)C(=O)N1 (some centres unmarked)	26
Cn1c(=O)n(C2CCC(=O)NC2=O)c2cc3c(cc21)C1(CCN(C[C@H]2CC[C@@H](OC4CCN(c5ccc([C@@H]6c7ccc(O)cc7CC[C@@H]6c6ccccc6)cc5)CC4)CC2)CC1)CO3 (some centres unmarked)	62
Cn1c(=O)n(C2CCC(=O)NC2=O)c2ccc3c(c21)C1(CCN(C(=O)[C@H]2CC[C@H](CN4CCN(c5ccc([C@@H]6c7ccc(O)cc7CC[C@@H]6c6ccccc6)cc5)CC4)CC2)CC1)CO3 (some centres unmarked)	44
Cn1c(=O)n(C2CCC(=O)NC2=O)c2cc3c(cc21)C1(CCN(C2CC4(CCN(c5ccc([C@@H]6c7ccc(O)cc7CC[C@@H]6c6ccccc6)cc5)CC4)C2)CC1)CO3 (some centres unmarked)	34
O=C1CCC(n2c(=O)n3c4c(cccc42)N(C[C@H]2CC[C@@H](OC4CCN(c5ccc([C@@H]6c7ccc(O)cc7CC[C@@H]6c6ccccc6)cc5)CC4)CC2)CC3)C(=O)N1 (some centres unmarked)	22
Cn1c(=O)n(C2CCC(=O)NC2=O)c2cc3c(cc21)C1(CCN(C2CCN(c4ccc([C@@H]5c6ccc(O)cc6CC[C@@H]5c5ccccc5)cc4)CC2)CC1)CO3 (some centres unmarked)	12
CN(c1ccc2c(c1)COC[C@H]1CN(CC3CCC(OC4CCN(c5ccc([C@@H]6c7ccc(O)cc7CC[C@@H]6c6ccccc6)cc5)CC4)CC3)CCN21)C1CCC(=O)NC1=O (some centres unmarked) [ER-P-52]	6

Consider the additional compound presented here.
What does the data say about its Degradation rate of ERα in T-47D cells (%)? Entry: Cn1c(=O)n(C2CCC(=O)NC2=O)c2cc3c(cc21)C1(CCN(CC2CCN(c4ccc([C@@H]5c6ccc(O)cc6CC[C@@H]5c5ccccc5)cc4)CC2)CC1)CO3 (some centres unmarked)
-16
